Cited source for all entries: the supplement of paper PMC9732359

METHOD_SUMMARY: protein stability index of a GFP-peptide fusion (yeast GPS) (PSI 1-4); higher = more stable; sorted into four equal gates, so the index is relative within each strain
STATED_CONDITIONS: doa10∆
Entries and their protein stability index

{"ORDERED_RESIDUES": "GCSKICDLSSKFNKSKA [YCS4]", "protein stability index": 3.08}
{"ORDERED_RESIDUES": "LSLTTVPCDRIEKSRLF [SNF6]", "protein stability index": 2.51}
{"ORDERED_RESIDUES": "KDIAKRQFKEILTVKEE [RRP40]", "protein stability index": 2.2}
{"ORDERED_RESIDUES": "SMINNSNQAVGQTWNFP [SRB8]", "protein stability index": 2.8}

----------
METHOD_SUMMARY: protein stability index of a GFP-peptide fusion (yeast GPS) (PSI 1-4); higher = more stable; sorted into four equal gates, so the index is relative within each strain
STATED_CONDITIONS: san1∆
Entries and their protein stability index

{"ORDERED_RESIDUES": "TTALLKDEEIEKLLQQD [MED8]", "protein stability index": 3.05}
{"ORDERED_RESIDUES": "LASKIKQYERLRFYKDT [RRI1]", "protein stability index": 1.97}
{"ORDERED_RESIDUES": "LNSLKDERSQGEKNFTS [SMC4]", "protein stability index": 3.05}
{"ORDERED_RESIDUES": "EIINNKTSSQTSLSSKD [YMR153W/NUP53]", "protein stability index": 2.34}
{"ORDERED_RESIDUES": "TQLQICLDQMTEQFCAT [SRB7]", "protein stability index": 2.54}
{"ORDERED_RESIDUES": "QPQQSTIGGGLFGNKPT [YGR119C/NUP57]", "protein stability index": 3.55}
{"ORDERED_RESIDUES": "NAQQTFHIDHTKPSDLT [RPO21]", "protein stability index": 2.69}
{"ORDERED_RESIDUES": "HNSHLSLNYKFTTNKSK [SRP21]", "protein stability index": 2.38}
{"ORDERED_RESIDUES": "GTNKDMILKLVCQVTKF [ECM29]", "protein stability index": 1.28}
{"ORDERED_RESIDUES": "SEEEEDEEENGSSDEDL [SSN2]", "protein stability index": 3.63}
{"ORDERED_RESIDUES": "ECLPAEGHDWKAPTKLD [DIS3]", "protein stability index": 3.35}
{"ORDERED_RESIDUES": "NVTTILDEIFSGCDSTK [ECM29]", "protein stability index": 2.48}
{"ORDERED_RESIDUES": "PKVKEIKTVVLVPQLGH [PRP8]", "protein stability index": 1.94}
{"ORDERED_RESIDUES": "APAFHTSGKVELPKKLL [SRB8]", "protein stability index": 2.93}
{"ORDERED_RESIDUES": "TSPIDIREKVAKQALDL [SNF2]", "protein stability index": 2.81}
{"ORDERED_RESIDUES": "ISLRNNHKIIARVKAFD [SMD2]", "protein stability index": 2.49}
{"ORDERED_RESIDUES": "CSFAVTKSSLNDLDYDL [YML103C/NUP188]", "protein stability index": 3.01}
{"ORDERED_RESIDUES": "EKLLQQDREITNWARTT [MED8]", "protein stability index": 2.48}
{"ORDERED_RESIDUES": "KILVLTGAGVSTSLGIP [SIR2]", "protein stability index": 2.76}
{"ORDERED_RESIDUES": "VFYRMQQLRRALPDVVV [RPO31]", "protein stability index": 1.82}
{"ORDERED_RESIDUES": "ADINKNFLSVITNKHQE [RPN2]", "protein stability index": 1.84}
{"ORDERED_RESIDUES": "FPLCVHLVSNELEQLSS [RPL10]", "protein stability index": 2.52}
{"ORDERED_RESIDUES": "AGERKIPHDLNFLQESY [TAF14]", "protein stability index": 2.71}
{"ORDERED_RESIDUES": "LRQQQQQQDQPEQSEQP [RPN10]", "protein stability index": 2.74}
{"ORDERED_RESIDUES": "RKFHELNDHIDDFEVNV [GRR1]", "protein stability index": 2.42}
{"ORDERED_RESIDUES": "NGNDESSEYETINISLS [NUT1]", "protein stability index": 3.06}
{"ORDERED_RESIDUES": "ALVAYTPTDVIGVVSLT [RRP6]", "protein stability index": 1.37}
{"ORDERED_RESIDUES": "KHDSLRYRLLSDVSDFE [RPN1]", "protein stability index": 2.75}
